Known IC50 of a selection of compounds
Target: c-Kit (Homo sapiens (Human))
Sequence (P10721 26-976): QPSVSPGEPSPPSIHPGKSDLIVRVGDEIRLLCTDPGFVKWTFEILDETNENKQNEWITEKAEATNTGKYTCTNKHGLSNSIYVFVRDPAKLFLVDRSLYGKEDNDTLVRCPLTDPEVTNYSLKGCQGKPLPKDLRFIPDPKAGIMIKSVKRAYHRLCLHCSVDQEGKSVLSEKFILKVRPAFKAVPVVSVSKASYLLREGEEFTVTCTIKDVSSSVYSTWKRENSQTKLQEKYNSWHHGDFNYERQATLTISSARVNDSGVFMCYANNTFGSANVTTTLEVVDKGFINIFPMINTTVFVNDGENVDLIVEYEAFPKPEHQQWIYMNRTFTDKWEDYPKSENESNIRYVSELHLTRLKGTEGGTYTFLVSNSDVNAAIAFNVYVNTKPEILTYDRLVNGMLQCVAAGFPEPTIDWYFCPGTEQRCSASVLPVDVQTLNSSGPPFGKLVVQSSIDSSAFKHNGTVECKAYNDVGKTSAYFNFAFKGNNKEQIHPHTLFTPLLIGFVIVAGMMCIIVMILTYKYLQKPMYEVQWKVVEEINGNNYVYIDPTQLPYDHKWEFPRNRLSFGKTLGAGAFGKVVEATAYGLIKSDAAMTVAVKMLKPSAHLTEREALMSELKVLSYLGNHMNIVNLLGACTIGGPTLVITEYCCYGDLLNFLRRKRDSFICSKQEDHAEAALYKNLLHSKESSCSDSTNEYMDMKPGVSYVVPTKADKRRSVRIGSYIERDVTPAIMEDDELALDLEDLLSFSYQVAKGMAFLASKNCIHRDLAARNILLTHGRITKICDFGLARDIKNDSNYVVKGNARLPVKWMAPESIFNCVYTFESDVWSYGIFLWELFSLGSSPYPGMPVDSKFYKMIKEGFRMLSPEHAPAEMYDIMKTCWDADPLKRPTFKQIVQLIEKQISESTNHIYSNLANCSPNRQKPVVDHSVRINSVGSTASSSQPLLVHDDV
Assay: Inhibition of c-Kit kinase activity (HTRF KinEASE-TK)
Format: biochemical
Conditions: biochemical, HTRF KinEASE-TK

- compound.structure.string: "Cc1ncc(C(=O)Nc2cc(C(=O)Nc3cnc(OC[C@@H]4CC4(F)F)cn3)c(F)cc2C)s1"
  tested.on: "c-Kit (Homo sapiens (Human))"
  readout.name: "IC50"
  result: "< 100 nM"
- compound.structure.string: "Cc1ncc(C(=O)Nc2cc(C(=O)Nc3ccc(OCC(F)(F)F)cn3)c(F)cc2C)s1"
  tested.on: "c-Kit (Homo sapiens (Human))"
  readout.name: "IC50"
  result: "< 100 nM"
- compound.structure.string: "Cc1cc(F)c(C(=O)N[C@H]2C[C@H]2F)cc1NC(=O)c1cnc(N)s1"
  tested.on: "c-Kit (Homo sapiens (Human))"
  readout.name: "IC50"
  result: "100 to 1000 nM"
- compound.structure.string: "Cc1cc(F)c(C(=O)NCCc2ccc(F)cc2)cc1NC(=O)c1cnc(N)s1"
  tested.on: "c-Kit (Homo sapiens (Human))"
  readout.name: "IC50"
  result: "< 100 nM"
- compound.structure.string: "Cc1cc(F)c(C(=O)Nc2ccc(CN3CCOCC3)cn2)cc1NC(=O)c1cnc(N)s1"
  tested.on: "c-Kit (Homo sapiens (Human))"
  readout.name: "IC50"
  result: "< 100 nM"

Task: Look up IC50: `Cc1cc(F)c(C(=O)Nc2cc(C3CC3)ccn2)cc1NC(=O)c1cnc(N)s1`
Result: < 100 nM

Task: Look up IC50: `COc1ccc(NC(=O)c2cc(NC(=O)c3cnc(N)s3)c(C)cc2F)cc1`
Result: < 100 nM

Task: Look up IC50: `Cc1cc(F)c(C(=O)Nc2ccc(OC3CC3)cc2F)cc1NC(=O)c1cnc(N)s1`
Result: < 100 nM

Task: Look up IC50: `Cc1cc(F)c(C(=O)Nc2ccc(OC3CC3)cn2)cc1NC(=O)c1cnc(C2CC2)s1`
Result: 100 to 1000 nM

Task: Look up IC50: `Cc1cc(F)c(C(=O)Nc2ccn(C3CC3)n2)cc1NC(=O)c1cnc(N)s1`
Result: < 100 nM

Task: Look up IC50: `Cc1cc(F)c(C(=O)Nc2ccc3c(c2)NC(=O)C3(C)C)cc1NC(=O)c1cnc(N)s1`
Result: < 100 nM
